- Tested on: Adrenergic α1B
- experimental_details: competitive radioligand binding, Adrenergic α1B
- condition_context: compound concentration of 1 μM
Where a name gives a salt, the structure may show the parent alone.
reported_metric: radio-labelled ligand displacement, Adrenergic α1B (%)
Reply with just the number (in %).

// known answers, use as guide
[
  {
    "molecule": "CN1CCc2c(c3cc(Cl)sc3n2CCCc2cccc(F)c2)C1 [3.12(6)•HCl]",
    "observed_result": 96
  },
  {
    "molecule": "Cc1ccc(C=CCn2c3c(c4cc(C)sc42)CN(C)CC3)cc1 [3.11(2)•HCl]",
    "observed_result": 60
  },
  {
    "molecule": "Cc1cc2c(s1)c1c(n2-c2cccc(F)c2)CCN(C)C1 [2.4(3)•HCl]",
    "observed_result": 10
  },
  {
    "molecule": "CC1Cc2c(c3sc(Cl)cc3n2C#Cc2cccc(F)c2)C(C)N1C (stereo not drawn) [2.10(3)•HCl]",
    "observed_result": 5
  }
]

Data point: Cc1csc2c1c1c(n2CCCc2ccccc2)CCN(C)C1 [3.12(1)•HCl] ; radio-labelled ligand displacement, Adrenergic α1B = 99

Field radio-labelled ligand displacement, Adrenergic α1B (entry Cc1cc2c3c(n(Cc4ccccc4)c2s1)CC1CCC3N1C (stereo not drawn) [3.13(1)•HCl] ) reads 69

###

- test_system: Serotoninergic 5-HT2C (Homo sapiens, UniProt P28335)
- Sequence (P28335 33-458): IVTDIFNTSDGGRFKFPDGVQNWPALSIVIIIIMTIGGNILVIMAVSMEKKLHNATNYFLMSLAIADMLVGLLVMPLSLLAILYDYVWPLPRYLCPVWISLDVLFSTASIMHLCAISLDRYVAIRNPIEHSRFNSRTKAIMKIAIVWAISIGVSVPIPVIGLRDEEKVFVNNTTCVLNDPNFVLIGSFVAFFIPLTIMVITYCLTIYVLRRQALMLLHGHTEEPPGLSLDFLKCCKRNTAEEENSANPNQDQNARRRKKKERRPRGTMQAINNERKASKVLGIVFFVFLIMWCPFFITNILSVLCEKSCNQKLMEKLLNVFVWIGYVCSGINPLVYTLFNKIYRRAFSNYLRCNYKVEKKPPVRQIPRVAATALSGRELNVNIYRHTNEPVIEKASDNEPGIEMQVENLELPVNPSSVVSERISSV
- experimental_details: competitive radioligand binding, Serotoninergic 5-HT2C
- condition_context: read-out: radio-labelled ligand displacement, Serotoninergic 5-HT2C
Where a name gives a salt, the structure may show the parent alone.
Overview of reported inhibition at 1 µM across a group of compounds:
Provide the reading as a plain figure in %.

[
  {
    "compound": "Cc1cc2c3c(n(CCc4ccccc4)c2s1)CCN(C)C3.Cl [3.6(1)•HCl]",
    "inhibition at 1 µM [%]": 99
  },
  {
    "compound": "Cc1cc2c(s1)c1c(n2Cc2ccccc2)CCN(C)C1.Cl [2.5(1)•HCl]",
    "inhibition at 1 µM [%]": 84
  },
  {
    "compound": "Cc1cc2c(s1)c1c(n2CCc2ccccc2)CCN(C)C1.Cl [2.6(1)•HCl]",
    "inhibition at 1 µM [%]": 89
  },
  {
    "compound": "Cc1cc2c3c(n(Cc4ccccc4)c2s1)CC1CCC3N1C (centres unmarked) [3.13(1)•HCl]",
    "inhibition at 1 µM [%]": 81
  }
]

# ---- query compound ----
inhibition at 1 µM recorded for this compound, Cc1cc2c3c(n(Cc4ccccc4)c2s1)CCN(C)C3.Cl [3.5(1)•HCl] , is 97

###

- test_system: UniProt:P28335
- experimental_details: competitive radioligand binding, Serotoninergic 5-HT2C
- condition_context: compound concentration of 1 μM
Counter-ions that a name gives are not always drawn.
reported_metric: radio-labelled ligand displacement, Serotoninergic 5-HT2C (%)
Return type: number; implicit unit %.

Worked cases, radio-labelled ligand displacement, Serotoninergic 5-HT2C given:
[
  {
    "molecule": "Cc1cc2c3c(n(CC(O)c4ccccc4)c2s1)CCN(C)C3.Cl (stereo not drawn) [3.7(1)•HCl]",
    "observed_result": 94
  },
  {
    "molecule": "CN1CCc2c(c3cc(Cl)sc3n2CCCc2cccc(F)c2)C1 [3.12(6)•HCl]",
    "observed_result": 98
  },
  {
    "molecule": "Cc1csc2c1c1c(n2CCCc2ccccc2)CCN(C)C1 [3.12(1)•HCl]",
    "observed_result": 97
  },
  {
    "molecule": "Cc1ccc(CCCn2c3c(c4c(Cl)csc42)CN(C)CC3)cc1 [3.12(5)•HCl]",
    "observed_result": 94
  },
  {
    "molecule": "Cc1ccc(C=CCn2c3c(c4cc(C)sc42)CN(C)CC3)cc1 [3.11(2)•HCl]",
    "observed_result": 93
  }
]

Now turn to the next molecule.
Form field radio-labelled ligand displacement, Serotoninergic 5-HT2C, entry Cc1cc2c3c(n(CCc4ccc(Cl)cc4)c2s1)C(C)CN(C)C3 (stereo not drawn) [3.6(4)•HCl] : 96
